- target.under.test: δ opioid receptor (Homo sapiens)
- Sequence (P41143 whole entry): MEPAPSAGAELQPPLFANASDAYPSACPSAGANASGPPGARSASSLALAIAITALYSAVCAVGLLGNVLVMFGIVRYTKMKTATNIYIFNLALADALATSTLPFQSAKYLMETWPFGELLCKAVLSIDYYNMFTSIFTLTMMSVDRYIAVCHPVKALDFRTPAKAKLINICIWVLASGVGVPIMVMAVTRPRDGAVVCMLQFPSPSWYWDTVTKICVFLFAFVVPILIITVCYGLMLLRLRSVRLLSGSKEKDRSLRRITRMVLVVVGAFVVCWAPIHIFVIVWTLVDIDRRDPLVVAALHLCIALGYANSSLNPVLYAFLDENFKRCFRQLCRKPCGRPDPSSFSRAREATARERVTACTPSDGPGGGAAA
- assay.method.text: PDSP radioligand binding, δ opioid
- stated.conditions: read-out: % inhibition at 10 µM; single concentration 10 µM
Reported inhibition at 10 µM values follow for various molecules
// return numeric value only (unit: %, not printed)

Examples with their reported inhibition at 10 µM follow.
[[record]]
cpd_smiles = "O[C@@H]1[C@H](O)[C@@H]2C[C@@H]2[C@H]1n1cnc2c(NC(C3CC3)C3CC3)nc(Cl)nc21"
test_value = 0

[[record]]
cpd_smiles = "CNC(=O)[C@@]12C[C@@H]1[C@@H](n1cnc3c(NC)nc(C#Cc4ccc(F)c(F)c4)nc31)[C@H](O)[C@@H]2O"
test_value = 9

[[record]]
cpd_smiles = "Clc1cccc(CNc2nc(Cl)nc3[nH]cnc23)c1"
test_value = 7

[[record]]
cpd_smiles = "O[C@@H]1[C@H](O)[C@@H]2C[C@@H]2[C@H]1n1cnc2c(NCc3cccc(Cl)c3)ncnc21"
test_value = 7


Entry `Fc1ccc(C#Cc2nc(NCc3cccc(Cl)c3)c3nc[nH]c3n2)cc1F` : reported inhibition at 10 µM = ?
12

Find the recorded inhibition at 10 µM belonging to `CNC(=O)[C@@]12C[C@@H]1[C@@H](n1cnc3c(NCc4cccc(Cl)c4)nc(C#Cc4ccc(F)cc4)nc31)[C@H](O)[C@@H]2O` and report it.
24

For the molecule shown here, `CNC(=O)[C@@]12C[C@@H]1[C@@H](n1cnc3c(NCc4cccc(Cl)c4)nc(Cl)nc31)[C@H](O)[C@@H]2O` , give the reported inhibition at 10 µM.
10

Looking for the measured inhibition at 10 µM of `O[C@@H]1[C@H](O)[C@@H]2C[C@@H]2[C@H]1n1cnc2c(NCc3cccc(Cl)c3)nc(C#Cc3ccc(F)c(F)c3)nc21` , can you help?
11

Item `CNC(=O)[C@@]12C[C@@H]1[C@@H](n1cnc3c(NCc4cccc(Cl)c4)nc(C#Cc4ccccc4Cl)nc31)[C@H](O)[C@@H]2O` has what recorded inhibition at 10 µM?
31
